Origin of values: patent US8802597B2

Tested on: corn (Zea mays)
Test: Test C pre/postemergence
Assay type: in vivo
Conditions: Zea mays, post-emergence, Postemergence, 250 g ai/ha; scale 0 to 100
Would you kindly list Corn plant response rating (crop injury, 0 = no effect, 100 = complete kill) at 250 g/ha for each of these molecules?
Give the number; % is assumed, so skip it.

query: Can you look up the measured Corn plant response rating (crop injury, 0 = no effect, 100 = complete kill) at 250 g/ha of CCOC(=O)c1nc(C2CC2)nc(N)c1Br for me?
result: 40

query: Which Corn plant response rating (crop injury, 0 = no effect, 100 = complete kill) at 250 g/ha is listed for CCOC(=O)c1nc(C2CC2)nc(N)c1Cl ?
result: 90

query: I'd like to know its Corn plant response rating (crop injury, 0 = no effect, 100 = complete kill) at 250 g/ha. The molecule in question is COC(=O)c1nc(C2CC2)nc(N)c1I
result: 0

query: Can you look up the measured Corn plant response rating (crop injury, 0 = no effect, 100 = complete kill) at 250 g/ha of COC(=O)c1nc(C2CC2)nc(N)c1Br for me?
result: 30

---

Provide the recorded pest or weed control at 500 g/ha for the entries that follow.
Test system: barnyardgrass (Echinochloa crus-galli)
Assay: Test B flooded paddy test
Assay type: in vivo
Details: Echinochloa crus-galli, Flood, 500 g ai/ha; scale 0 to 100; read-out: Plant response rating, Barnyardgrass
Reply numerically in %, unit not repeated.

query: Data request, read-out pest or weed control at 500 g/ha, for CCOC(=O)c1nc(-c2ccc(Br)cc2)nc(N)c1Cl
result: 0

query: Which measured pest or weed control at 500 g/ha value corresponds to Nc1nc(-c2ccc(Br)cc2)nc(C(=O)O)c1Cl ?
result: 30

query: Would you mind telling me what pest or weed control at 500 g/ha value was observed for Nc1nc(C2CC2)nc(C(=O)[O-])c1Cl.[Na+] [Compound 77, monosodium salt] ?
result: 60

query: Which pest or weed control at 500 g/ha is reported for this compound? CCOC(=O)c1nc(-c2ccc(Cl)cc2)nc(N)c1Cl
result: 0

---

Test system: velvetleaf (Abutilon theophrasti)
Assay: Test C pre/postemergence
Type: in vivo
Settings: Preemergence, 62 g ai/ha; scale 0 to 100, 0 no effect, 100 complete control
PROPERTY: Plant response rating, Velvetleaf
// return a plain number; no unit text

query: Which Plant response rating, Velvetleaf value belongs to CN(C)N=Cc1nc(C2CC2)nc(N)c1Br [Compound 50] ?
result: 65

query: // returns reported Plant response rating, Velvetleaf for input Nc1nc(-c2ccc(Cl)cc2)nc(C(=O)[O-])c1Cl.[Na+] [Compound 117]
result: 65

query: What value of Plant response rating, Velvetleaf has been reported for the following compound? COC(=O)CNc1nc(C2CC2)nc(C(=O)OC)c1Br [Compound 10]
result: 0

query: Please report the recorded Plant response rating, Velvetleaf for CCOC(=O)C(Cl)c1nc(C2CC2)nc(N)c1Br (centres unmarked) [Compound 31] .
result: 0

query: Report Plant response rating, Velvetleaf for CC(C)COC(=O)c1nc(C2CC2)nc(N)c1Br [Compound 17] please.
result: 80

query: I am curious: what Plant response rating, Velvetleaf value has been reported for Nc1nc(C2CC2)nc(C=NO)c1Br [Compound 27] ?
result: 0

query: Fill in the blank: the reported Plant response rating, Velvetleaf of CCCOC(=O)c1nc(C2CC2)nc(N)c1Br [Compound 15] is ____.
result: 80

query: # Plant response rating, Velvetleaf lookup, item CCOC(=O)C(OC(C)=O)c1nc(C2CC2)nc(N)c1Br (centres unmarked) [Compound 47]
result: 20

---

Give Plant response rating, Flatsedge, Rice for every item shown.
Tested on: rice flatsedge (Cyperus iria)
Test: Test E flooded paddy water application
Format: in vivo
Settings: Flood, 16 g ai/ha; scale 0 to 100 (0 no effect, 100 complete control); 21 days
I'd appreciate a reply containing only the number, no unit.

query: For the record Nc1nc(-c2ccc(Cl)cc2)nc(C(=O)OCc2ccccc2)c1Cl [Compound 118] , what value of Plant response rating, Flatsedge, Rice is listed for rice flatsedge (Cyperus iria)?
result: 85

query: Notebook: pull reported Plant response rating, Flatsedge, Rice for rice flatsedge (Cyperus iria), entry CCOC(=O)c1nc(-c2ccc(Br)cc2)nc(N)c1Cl [Compound 94]
result: 100

query: Short answer please: Plant response rating, Flatsedge, Rice, rice flatsedge (Cyperus iria), entry Nc1nc(-c2ccc(Cl)cc2)nc(C(=O)[O-])c1Cl.[Na+] [Compound 117]
result: 100

query: Lookup: Plant response rating, Flatsedge, Rice / rice flatsedge (Cyperus iria) / CNc1nc(-c2ccc(Cl)cc2)nc(C(=O)OC)c1Cl [Compound 111]
result: 0

query: Short answer please: Plant response rating, Flatsedge, Rice, rice flatsedge (Cyperus iria), entry COC(=O)c1nc(-c2ccc(Br)cc2)nc(N)c1Cl [Compound 96]
result: 100

---

Kindly supply the reported Wheat plant response rating values for the records listed here.
Test system: wheat (Triticum aestivum)
Test: Test B pre/postemergence
Format: in vivo
Conditions: Postemergence, 125 g ai/ha; scale 0 to 100 (0 no effect, 100 complete control)
Please state the value as a number alone, without comment.

query: Quick one: Wheat plant response rating of Nc1nc(-c2ccc(Cl)cc2)nc(C(=O)[O-])c1Cl.[Na+] [Compound 117] ?
result: 70

query: Tell me the measured Wheat plant response rating of COC(=O)c1nc(C2CC2)nc(N=CN(C)C)c1Br [Compound 19] , please.
result: 20

query: Bench note: what Wheat plant response rating did CNN=Cc1nc(C2CC2)nc(N)c1Br [Compound 49] show?
result: 30

query: Report Wheat plant response rating for CCOC(=O)Cc1nc(-c2ccc(Cl)cc2)nc(N)c1Br [Compound 41] please.
result: 30

query: State the recorded Wheat plant response rating for this entry: COCc1nc(C2CC2)nc(N)c1Br [Compound 11]
result: 0

query: Any idea what its Wheat plant response rating is? The molecule is Nc1nc(C2CC2)nc(C=NO)c1Br [Compound 27]
result: 20

query: Report Wheat plant response rating for Nc1nc(C2CC2)nc(C(=O)O)c1Cl [Compound 135] please.
result: 60

query: Entry under review: CCCOC(=O)c1nc(C2CC2)nc(N)c1Cl [Compound 75] . Reported Wheat plant response rating?
result: 70

query: Can you share its Wheat plant response rating? I mean this molecule: CCOC(=O)c1nc(C2CC2)nc(NOCc2ccccc2)c1Br [Compound 54]
result: 0

query: // query Wheat plant response rating value for entry CCOC(=O)c1nc(C2CC2)nc(NCCN(C)C)c1Br [Compound 38]
result: 0

---

System: redroot pigweed (Amaranthus retroflexus)
Assay: Test A pre/postemergence
Assay type: in vivo
Settings: Postemergence, 125 g ai/ha; 0 to 100 scale (0 no effect, 100 complete control)
PROPERTY: Plant response rating, Pigweed

query: Bench note: what Plant response rating, Pigweed did CCOC(=O)c1nc(-c2ccc(Cl)c(Cl)c2)nc(N)c1Cl show?
result: 75

query: Which Plant response rating, Pigweed is listed for COCCOCCOC(=O)c1nc(C2CC2)nc(N)c1Cl ?
result: 90

query: Bench note: what Plant response rating, Pigweed did CC(C)N.Nc1nc(C2CC2)nc(C(=O)O)c1Cl show?
result: 85

query: Which Plant response rating, Pigweed reading was recorded for the compound Nc1nc(C2CC2)nc(C(=O)OCC2COC(=O)O2)c1Cl (stereo not shown) ?
result: 75

query: // lookup Plant response rating, Pigweed for CCCCOC(=O)c1nc(C2CC2)nc(N)c1Cl
result: 85

query: Any idea what Plant response rating, Pigweed was measured for CCOC(=O)c1nc(-c2ccc(I)cc2)nc(N)c1Cl ?
result: 80

query: Look up Plant response rating, Pigweed for this compound: CCOC(=O)c1nc(-c2ccc(C(F)(F)F)cc2)nc(N)c1Br
result: 10

query: // returns reported Plant response rating, Pigweed for input Nc1nc(-c2ccc(Cl)cc2)nc(C(=O)O)c1Br
result: 90

query: Which value of Plant response rating, Pigweed has been reported for Nc1nc(C2CC2)nc(C(=O)OCCCOC(=O)c2nc(C3CC3)nc(N)c2Cl)c1Cl in the records?
result: 85

query: Which Plant response rating, Pigweed reading was recorded for the compound COC(=O)c1nc(-c2ccc(I)cc2)nc(N)c1Br ?
result: 55

---

Tested on: giant foxtail (Setaria faberii)
Assay: Test B pre/postemergence
Assay type: in vivo
Conditions: Setaria faberi, pre-emergence; Preemergence, 62 g ai/ha; scale 0 to 100, 0 no effect, 100 complete control; read-out: Plant response rating, Foxtail, Giant
Record form. Attribute: pest or weed control at 62 g/ha. Fill in for each entry.
Numeric answer plus unit only.

query: Report pest or weed control at 62 g/ha for Nc1nc(C2CC2)nc(C(=O)OCc2ccccc2)c1Cl [Compound 78] please.
result: 20%

query: Would you mind telling me what pest or weed control at 62 g/ha value was observed for CCOC(=O)c1nc(C2CC2)nc(NC(C)=O)c1Br [Compound 53] ?
result: 0%

query: What pest or weed control at 62 g/ha value was documented for this compound, CCOC(=O)c1nc(C2CC2)nc(N)c1Br [Compound 1] ?
result: 30%

query: Would you kindly share the measured pest or weed control at 62 g/ha for CCOC(=O)c1nc(-c2ccc(Br)cc2)nc(N)c1Cl [Compound 94] ?
result: 0%
